- tested on: Disintegrin and metalloproteinase domain-containing protein 10 (Homo sapiens)
- assay info: inhibition of ADAM10 substrate cleavage, late-stage follow-up, ADAM10 exosite inhibitor project, biochemical, QFRET peptide, fluorescence (AID 743338)
- condition set: recombinant ADAM10, QFRET peptide cleavage
The source made the active and inactive calls.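 Rule for the calls: active = IC50 at or below 10 µM; inactive = IC50 above 10 µM.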
Please reply with one of these outcomes: active, inactive

compound	tested on	group
Cc1ccc(OCC(O)Cn2c3ccccc3c3ccccc32)cc1 (stereo not drawn)	Disintegrin and metalloproteinase domain-containing protein 10 (Homo sapiens)	inactive

INPUT: Recorded call for `O=C(O)CCC(=O)c1c[nH]c2ccccc12` ?
OUTPUT: inactive

INPUT: Recorded call for Oc1cc2c(cc1C(c1ccc(Cl)c(Cl)c1)N1CCCC1)OCO2 (stereo not drawn) ?
OUTPUT: active

INPUT: Recorded call for `O=C(Nc1ccc(OCC(F)(F)C(F)(F)F)c(C(F)(F)F)c1)c1ccc(Br)cc1` ?
OUTPUT: inactive

INPUT: Recorded call for `C=C(C)COc1ccc(-c2[nH]ncc2Oc2cccc(OC)c2)c(O)c1` ?
OUTPUT: inactive

INPUT: Recorded call for O=C1NC(=O)C(Cc2ccc(Cl)cc2)(c2ccccc2)N1 (stereo not drawn) ?
OUTPUT: inactive

INPUT: Recorded call for `C=C(C)COc1ccc(-c2n[nH]c(C)c2Oc2ccccc2OC)c(O)c1` ?
OUTPUT: inactive

INPUT: Recorded call for `O=C(Nc1ccc(OCC(F)(F)C(F)F)c(C(F)(F)F)c1)c1ccc(Cl)cc1` ?
OUTPUT: inactive

INPUT: Recorded call for `COc1cccc(C(=O)NNC(=O)C(=O)Nc2ccc(C)c(Cl)c2)c1` ?
OUTPUT: active

INPUT: Recorded call for `COc1ccccc1NS(=O)(=O)c1cccc(NC(=O)Nc2ccc(Cl)cc2)c1` ?
OUTPUT: inactive

INPUT: Recorded call for O=S(=O)(NCC(Nc1ccc(Cl)cc1)c1ccccc1)c1ccccc1 (stereo not drawn) ?
OUTPUT: inactive

INPUT: Recorded call for CCCCN(Cc1ccccc1)S(=O)(=O)c1cc(Br)cc2c1N(C(C)=O)C(C)C2 (stereo not drawn) ?
OUTPUT: inactive

INPUT: Recorded call for `Cc1csc(-c2cnn(-c3ccccc3)c2NC(=O)c2ccc(C(F)(F)F)cc2)n1` ?
OUTPUT: inactive
